system: giant foxtail; assay: Test C postemergence; assay type: in vivo, Setaria faberii; details: 31 g ai/ha, postemergence; visual rating, scale 0 to 100 (0 no effect, 100 complete control), 13 to 15 days
assay_metric: Foxtail, Giant plant response rating
No unit in the answer, please; the number alone is enough.

Fc1cnc(Oc2ccccc2-n2cc(C(F)F)cn2)nc1 [Compound 228] ... 0
FC(F)c1cccc(Oc2ncc(Br)cn2)c1-n1cc(C(F)(F)F)cn1 [Compound 163] ... 5
Clc1cnc(Oc2ccccc2-n2cc(I)nn2)nc1 [Compound 222] ... 5
FCc1cccc(Oc2ncc(F)cn2)c1-n1cc(I)cn1 [Compound 152] ... 5

--- query ---
# get_value(readout= Foxtail, Giant plant response rating, system= giant foxtail) for Clc1cnc(Oc2cccc(Cl)c2-n2cc(I)cn2)nc1 [Compound 181]
10

###

test system: soybean; experiment: Test C postemergence; type: in vivo, Glycine max; conditions: 31 g ai/ha, postemergence; visual rating, scale 0 to 100 (0 no effect, 100 complete control), 13 to 15 days
assay_metric: Soybean plant response rating
No unit in the answer, please; the number alone is enough.

Reference set (5 entries):
Clc1cnc(Oc2ccccc2-n2cc(Br)nn2)nc1 ... 65
Fc1cnc(Oc2ccccc2-n2cc(C(F)F)cn2)nc1 ... 35
Clc1cnc(Oc2cccc(Cl)c2-n2cc(Cl)cn2)nc1 ... 65
N#Cc1cccc(Oc2ncc(Cl)cn2)c1-n1cc(OCC(F)(F)F)cn1 ... 70
FC(F)c1cccc(Oc2ncc(Br)cn2)c1-n1cc(C(F)(F)F)cn1 ... 50

Entry Fc1cnc(Oc2cccc(C(F)F)c2-n2cc(C(F)(F)F)cn2)nc1 has what Soybean plant response rating?
35

Do the same for Clc1cnc(Oc2cccc(Br)c2-n2cc(Cl)cn2)nc1 please
55

Do the same for Clc1cnc(Oc2cccc(Cl)c2-n2cc(I)cn2)nc1 please
50

Do the same for N#Cc1cnn(-c2c(Oc3ncc(F)cn3)cccc2C(F)F)c1 please
40

Do the same for FC(F)c1cnn(-c2c(Br)cccc2Oc2ncc(Cl)cn2)c1 please
55

###

system: soybean; experiment: Test C postemergence; assay type: in vivo, Glycine max; details: 125 g ai/ha, postemergence; visual rating, scale 0 to 100 (0 no effect, 100 complete control)
The compounds listed here are annotated with their Plant response rating, Soybean.
No unit in the answer, please; the number alone is enough.

FCc1cccc(Oc2ncc(Cl)cn2)c1-n1cc(I)cn1 [Compound 245] ... 90

Entry N#Cc1cnn(-c2c(C#N)cccc2Oc2ncc(Cl)cn2)c1 [Compound 200] has what Plant response rating, Soybean?
95

Do the same for Fc1cccc(Oc2ncc(Cl)cn2)c1-n1cc(Cl)cn1 [Compound 177] please
95

###

The compounds listed here are annotated with their Crabgrass, Large plant response rating.
test system: large (Lg) crabgrass; test: Test A preemergence; format: in vivo, Digitaria sanguinalis; conditions: 500 g ai/ha, 0 to 100 scale where 0 is no effect and 100 is complete control

Reference set (6 entries):
CCOC(=O)c1cnn(-c2c(C#N)cccc2Oc2ncc(Br)cn2)c1 ... 60
O=Cc1cccc(Oc2ncc(Br)cn2)c1-n1cc(Br)cn1 ... 0
FC(F)(F)c1cnn(-c2c(Br)cccc2Oc2ncc(Cl)cn2)c1 ... 100
FC(F)c1cccc(Oc2ncc(Cl)cn2)c1-n1cc(I)cn1 ... 100
Clc1cnc(Oc2cccc(Cl)c2-n2cc(Cl)cn2)nc1 ... 100
N#Cc1cnc(Oc2ccccc2-n2cccn2)nc1 ... 0

Entry Clc1cnc(Oc2cccc(Br)c2-n2cc(Cl)cn2)nc1 has what Crabgrass, Large plant response rating?
100

Do the same for COc1cnn(-c2ccccc2Oc2ncc(Cl)cn2)c1 please
100

Do the same for Clc1cnc(Oc2ccccc2-n2cc(-c3ccccn3)cn2)nc1 please
90

Do the same for Fc1cnc(Oc2ccccc2-n2cc(C(F)F)cn2)nc1 please
100

###

system: velvetleaf; assay: Test A preemergence; format: in vivo, Abutilon theophrasti; details: 500 g ai/ha, 0 to 100 scale, 0 no effect, 100 complete control, approx. 10 days
Consider the cut-off 90. If the recorded Velvetleaf plant response rating is strictly smaller, the label is fulfilled; if not, the label is not fulfilled.

Consider the worked cases shown below.
N#Cc1cccc(Oc2ncc(Br)cn2)c1-n1cc(Cl)cn1 ... not fulfilled
Clc1cnc(Oc2ccccc2-n2ccc(Br)n2)nc1 ... fulfilled
FC(F)(F)c1cnc(Oc2ccccc2-n2ccc(C(F)(F)F)n2)nc1 ... fulfilled
FC(F)(F)c1cccc(Oc2ncc(Br)cn2)c1-n1cc(Br)cn1 ... not fulfilled
COc1ccc(Oc2ncc(Br)cn2)c(-n2cc(Br)cn2)c1 ... fulfilled

Item CC=Cc1cnn(-c2ccccc2Oc2ncc(Cl)cn2)c1 : Velvetleaf plant response rating beneath 90, strictly?
fulfilled

Do the same for N#Cc1cccc(Oc2ncc(Cl)cn2)c1-n1cc(Cl)cn1 please
not fulfilled

Do the same for O=[N+]([O-])c1cccc(Oc2ncc(Cl)cn2)c1-n1cc(Br)cn1 please
fulfilled

Do the same for N#Cc1cnn(-c2ccccc2Oc2ncc(Cl)cn2)c1 please
not fulfilled

###

The compounds listed here are annotated with their Corn plant response rating.
system: corn; assay: Test A preemergence; format: in vivo, Zea mays; settings: 500 g ai/ha, 0 to 100 scale, 0 no effect, 100 complete control, approx. 10 days
No unit in the answer, please; the number alone is enough.

Entry FC(F)(F)Oc1cccc(Oc2ncc(Cl)cn2)c1-n1cc(Br)cn1 [Compound 78] has what Corn plant response rating?
10

Do the same for Brc1cnc(Oc2ccccc2-n2ccc(Br)n2)nc1 [Compound 20] please
0

###

The compounds listed here are annotated with their Plant response rating, Chickweed.
system: chickweed; experiment: Test C postemergence; type: in vivo, Stellaria media; conditions: 125 g ai/ha, postemergence; visual rating, scale 0 to 100 (0 no effect, 100 complete control)
No unit in the answer, please; the number alone is enough.

Reference set (6 entries):
Clc1cnc(Oc2cccc(Cl)c2-n2cc(I)cn2)nc1 [Compound 181] ... 85
Fc1cccc(Oc2ncc(Cl)cn2)c1-n1cc(Cl)cn1 [Compound 177] ... 85
N#Cc1cnn(-c2c(Br)cccc2Oc2ncc(Cl)cn2)c1 [Compound 140] ... 70
N#Cc1cnn(-c2c(C#N)cccc2Oc2ncc(Cl)cn2)c1 [Compound 200] ... 95
Cc1cnc(Oc2cccc(C#N)c2-n2cc(C(F)(F)F)cn2)nc1 [Compound 180] ... 80
N#Cc1cnn(-c2c(Oc3ncc(F)cn3)cccc2C(F)F)c1 [Compound 240] ... 55

# get_value(readout= Plant response rating, Chickweed, system= chickweed) for FC(F)c1cnn(-c2c(Br)cccc2Oc2ncc(Cl)cn2)c1 [Compound 232]
60

Do the same for FCc1cccc(Oc2ncc(Cl)cn2)c1-n1cc(I)cn1 [Compound 245] please
100

###

system: giant foxtail; assay: Test C postemergence; assay type: in vivo, Setaria faberii; settings: 16 g ai/ha, postemergence; 0 is no effect, 100 is complete control
assay_metric: Plant response rating (0 to 100), Foxtail, Giant
No unit in the answer, please; the number alone is enough.

Reference set (5 entries):
N#Cc1cnn(-c2c(Br)cccc2Oc2ncc(Cl)cn2)c1 [Compound 140] ... 5
FCc1cn(-c2ccccc2Oc2ncc(Cl)cn2)nn1 [Compound 123] ... 0
FC(F)(F)c1cnn(-c2c(Br)cccc2Oc2ncc(Cl)cn2)c1 [Compound 191] ... 10
N#Cc1cn(-c2c(C#N)cccc2Oc2ncc(Cl)cn2)nn1 [Compound 273] ... 10
FC(F)c1cnn(-c2c(Br)cccc2Oc2ncc(Cl)cn2)c1 [Compound 232] ... 5

Entry Clc1cnc(Oc2cccc(Cl)c2-n2cc(I)cn2)nc1 [Compound 181] has what Plant response rating (0 to 100), Foxtail, Giant?
10

Do the same for FCc1cccc(Oc2ncc(F)cn2)c1-n1cc(I)cn1 [Compound 152] please
5

Do the same for Clc1cnc(Oc2cccc(Cl)c2-n2cc(Cl)cn2)nc1 [Compound 220] please
0

###

The molecules listed here are annotated with their Barnyardgrass plant response rating.
system: barnyardgrass; test: Test A preemergence; assay type: in vivo, Echinochloa crus-galli; details: 500 g ai/ha, 0 to 100 scale, 0 no effect, 100 complete control, approx. 10 days
No unit in the answer, please; the number alone is enough.

Reference set (3 entries):
FC(F)(F)c1ccc(Oc2ncc(Cl)cn2)c(-n2cc(Br)cn2)c1 ... 0
FC(F)(F)Oc1cccc(Oc2ncc(Cl)cn2)c1-n1cc(Br)cn1 ... 80
N#Cc1cccc(Oc2ncc(Cl)cn2)c1-n1cc(OC(F)F)cn1 ... 100

Entry Fc1cnc(Oc2ccccc2-n2cc(C(F)(F)F)cn2)nc1 has what Barnyardgrass plant response rating?
100

Do the same for N#Cc1cccc(Oc2ncc(I)cn2)c1-n1cc(I)cn1 please
10

Do the same for Brc1cnc(Oc2ccccc2-n2ccc(Br)n2)nc1 please
20

Do the same for FC(F)(F)c1cccc(Oc2ncc(Br)cn2)c1-n1cc(Br)cn1 please
90

Do the same for Cc1cnc(Oc2cccc(C#N)c2-n2cc(Br)cn2)nc1 please
100
